target: CAC C23V/C58V/C89S/C155V/C283S mutant (Rattus norvegicus, UniProt P97521, C155V/C23V/C283S/C58V/C89S); test: Transport assay in proteoliposomes, CAC mutant containing the sole C136; settings: read-out: IC50 for itaconate inhibition
Sequence (P97521 whole entry C23V/C58V/C89S/C155V/C283S): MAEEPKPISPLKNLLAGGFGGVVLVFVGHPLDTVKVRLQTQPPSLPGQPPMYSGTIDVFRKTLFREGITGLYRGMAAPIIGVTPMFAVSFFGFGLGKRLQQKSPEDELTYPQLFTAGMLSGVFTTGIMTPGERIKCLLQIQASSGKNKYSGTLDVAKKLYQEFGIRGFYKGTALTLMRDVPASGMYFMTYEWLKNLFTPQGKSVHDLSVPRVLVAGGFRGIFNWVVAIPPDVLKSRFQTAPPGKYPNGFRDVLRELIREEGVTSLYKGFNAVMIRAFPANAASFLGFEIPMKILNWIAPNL
Parameter measured: IC50 (mM)

Compound | Parameter measured | Recorded measurement
C=C(CC(=O)O)C(=O)O [itaconate] | IC50 | 4

----------
biological target: CAC C23V/C58V/C89S/C136V/C155V/C283S (C-less) mutant (Rattus norvegicus, UniProt P97521, C136V/C155V/C23V/C283S/C58V/C89S); experiment: Transport assay in proteoliposomes, C-less CAC mutant; conditions: C-less mutant; read-out: IC50 for itaconate inhibition
Sequence (P97521 whole entry C23V/C58V/C89S/C136V/C155V/C283S): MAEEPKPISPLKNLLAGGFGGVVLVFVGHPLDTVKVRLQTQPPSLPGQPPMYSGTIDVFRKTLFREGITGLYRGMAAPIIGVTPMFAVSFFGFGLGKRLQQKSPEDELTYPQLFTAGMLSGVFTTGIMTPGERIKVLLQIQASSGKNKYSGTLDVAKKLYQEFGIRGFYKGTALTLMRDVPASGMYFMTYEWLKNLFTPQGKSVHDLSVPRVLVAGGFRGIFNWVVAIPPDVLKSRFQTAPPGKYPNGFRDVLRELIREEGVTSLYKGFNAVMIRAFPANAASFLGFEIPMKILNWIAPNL
pIC50: −log10 of the molar value.

Compound | pIC50
C=C(CC(=O)O)C(=O)O [itaconate] | 1.82

----------
biological target: recombinant CAC (WT) (Rattus norvegicus, UniProt P97521); construct: made in house; host or cells: E. coli C0214; experiment: [3H]carnitine/carnitine antiport in proteoliposomes reconstituted with recombinant WT CAC; type: biochemical; conditions: recombinant CAC, 10 min incubation, 0.1 mM [3H]carnitine, pH 7.0; read-out: IC50 for itaconate inhibition of transport
Sequence (P97521 whole entry): as the sequence (P97521 whole entry C23V/C58V/C89S/C155V/C283S) above, with V23C, V58C, S89C, V155C, S283C counted along it
pIC50: −log10 of the molar value.

Compound | Tested on | pIC50
C=C(CC(=O)O)C(=O)O [itaconate] | recombinant CAC (WT) (Rattus norvegicus, UniProt P97521) | 2.08

----------
biological target: recombinant ORC (hORC1) (Homo sapiens, UniProt Q9Y619); construct: encodes a full-length hORC1 protein with a His6 tag before the termination codon; His6 (C); test: [3H]ornithine transport in proteoliposomes reconstituted with recombinant ORC; details: read-out: IC50 for itaconate inhibition
Sequence (Q9Y619 whole entry): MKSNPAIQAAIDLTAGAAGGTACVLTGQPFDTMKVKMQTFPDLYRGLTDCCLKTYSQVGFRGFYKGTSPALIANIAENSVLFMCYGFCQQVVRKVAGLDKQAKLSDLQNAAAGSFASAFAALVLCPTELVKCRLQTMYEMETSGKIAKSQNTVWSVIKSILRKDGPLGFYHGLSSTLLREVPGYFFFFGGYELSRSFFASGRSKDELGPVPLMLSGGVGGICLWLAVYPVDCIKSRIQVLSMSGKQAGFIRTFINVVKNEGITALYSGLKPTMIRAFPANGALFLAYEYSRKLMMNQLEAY
pIC50: −log10 of the molar value.

Compound | pIC50
C=C(CC(=O)O)C(=O)O [itaconate] | 1.36

----------
molecular target: recombinant CAC (WT) (Rattus norvegicus, UniProt P97521); assay: [3H]carnitine/carnitine antiport in proteoliposomes reconstituted with recombinant WT CAC; conditions: pH 7.0, 10 mM itaconate, Lineweaver-Burk plot
pKi: −log10 of the molar value.

Compound | pKi
C=C(CC(=O)O)C(=O)O [itaconate] | 1.85

----------
Property: pIC50; scope: individual compounds
target: recombinant CAC (WT) (Rattus norvegicus, UniProt P97521); construct: made in house; host or cells: E. coli C0214; test: [3H]carnitine/carnitine antiport in proteoliposomes reconstituted with recombinant WT CAC; assay type: biochemical; details: recombinant WT CAC, pH 6.5, 10 min incubation; read-out: IC50 for inhibition of transport at pH 6.5
pIC50: −log10 of the molar value.
Parameter measured: pIC50

Compound | Recorded measurement
C=C(CC(=O)O)C(=O)O [itaconate] | 2.42
C=C(CC(=O)OC)C(=O)OC [dimethyl itaconate] | 1.70

----------
molecular target: CAC C155A mutant (Rattus norvegicus, UniProt P97521, C155A); construct: made in house; host or cells: E. coli C0214; test: Transport assay in proteoliposomes, CAC mutant C155A; format: biochemical; conditions: read-out: IC50 for itaconate inhibition
Sequence (P97521 whole entry C155A): as the sequence (P97521 whole entry C23V/C58V/C89S/C155V/C283S) above, with V23C, V58C, S89C, V155A, S283C counted along it
pIC50: −log10 of the molar value.
Parameter measured: pIC50

Compound | Recorded measurement
C=C(CC(=O)O)C(=O)O [itaconate] | 2.42
